Assay: in vivo
Settings: male, Sprague-Dawley, rat, plasma, iv, 5 mg/kg, Plasma concentration, Average, IV 5 mg/kg, 5 min
test-readout: concentration at 5 min (ng/mL)
Value expressed in ng/mL; do not type the unit.

Requested field: concentration at 5 min. Item: C[C@@H](Cc1cccc2ccccc12)NC[C@H](O)c1cc(O)cc(O)c1.O=C(O)/C=C/C(=O)O [(R,S)-5, fumarate]
2110

###

Assay: in vivo
Settings: male, Sprague-Dawley, rat, plasma, iv, 5 mg/kg
test-readout: Vd (L)
Value expressed in L; do not type the unit.

Requested field: Vd. Item: C[C@H](Cc1ccc(O)cc1)NC[C@H](O)c1cc(O)cc(O)c1 [(R,R)-1, (R,R)-(−)-Fenoterol]
1.91

Requested field: Vd. Item: C[C@@H](Cc1cccc2ccccc12)NC[C@H](O)c1cc(O)cc(O)c1.O=C(O)/C=C/C(=O)O [(R,S)-5]
2.2

###

Assay: in vivo
Details: male, Sprague-Dawley, rat, plasma, iv, 5 mg/kg, Plasma concentration, Average, IV 5 mg/kg, 60 min
test-readout: concentration at 60 min (ng/mL)
Value expressed in ng/mL; do not type the unit.

Requested field: concentration at 60 min. Item: C[C@@H](Cc1cccc2ccccc12)NC[C@H](O)c1cc(O)cc(O)c1.O=C(O)/C=C/C(=O)O [(R,S)-5, fumarate]
340

###

Assay: in vivo
Conditions: male, Sprague-Dawley, rat, plasma, iv, 5 mg/kg, Individual plasma concentration, IV 5 mg/kg, 5 min, individual rats
test-readout: concentration at 5 min (ng/mL)
Value expressed in ng/mL; do not type the unit.

Requested field: concentration at 5 min. Item: C[C@@H](Cc1cccc2ccccc12)NC[C@H](O)c1cc(O)cc(O)c1.O=C(O)/C=C/C(=O)O [(R,S)-5, fumarate]
2520

###

Test: in vivo
Details: male, Sprague-Dawley, rat, plasma, iv, 5 mg/kg
# AUC annotations
# output: number + unit

{"compound": "C[C@@H](Cc1cccc2ccccc12)NC[C@H](O)c1cc(O)cc(O)c1.O=C(O)/C=C/C(=O)O [(R,S)-5]", "AUC": "1950 ng·h/mL"}

Please examine the following record next.
Requested field: AUC. Item: C[C@H](Cc1ccc(O)cc1)NC[C@H](O)c1cc(O)cc(O)c1 [(R,R)-1, (R,R)-(−)-Fenoterol]
495 ng·h/mL

###

Experiment: in vivo
Conditions: male, Sprague-Dawley, rat, plasma, iv, 5 mg/kg, Plasma concentration, Average, IV 5 mg/kg, 15 min
test-readout: concentration at 15 min (ng/mL)
Value expressed in ng/mL; do not type the unit.

Requested field: concentration at 15 min. Item: C[C@@H](Cc1cccc2ccccc12)NC[C@H](O)c1cc(O)cc(O)c1.O=C(O)/C=C/C(=O)O [(R,S)-5, fumarate]
680

###

Test: in vivo
Conditions: male, Sprague-Dawley, rat, plasma, iv, 5 mg/kg, Individual plasma concentration, IV 5 mg/kg, 15 min, individual rats
test-readout: concentration at 15 min (ng/mL)
Value expressed in ng/mL; do not type the unit.

Requested field: concentration at 15 min. Item: C[C@@H](Cc1cccc2ccccc12)NC[C@H](O)c1cc(O)cc(O)c1.O=C(O)/C=C/C(=O)O [(R,S)-5, fumarate]
850
